- System under test: SARS-CoV-2 WT spike on rVSV-deltaG-Luc pseudovirus (SARS-CoV-2), P0DTC2
- Test: cell-based or functional assay
I'd be grateful if you could share measured pseudovirus neutralization IC50 for these entries.
Reply with just the number (in nM).

Recorded result, 3D4 VHH-Fc (Fc fusion) QVQLVESGGGLVQPGGSLRLSCAASGFTLDLNSIGWFRQAPGKEREGVSCISPSGSRMHYADSVKGRFTISRDNAKNTVYLQMNSLKPEDTAVYYCATGSPSYHYCSMYGLEYDSWGQGTQVTVPS , pseudovirus neutralization IC50: 1.22

Recorded result, 1A11 VHH-Fc (Fc fusion) QVQLVESGGGLVQAGGSLRLSCEVSGSIYSINSMGWYRQAPGKQRELVAGIVSDGRINYADSVKGRFTISRAKNTVYLQMNSLKPEDTAVYYCAADRAFVYAGDYDYLGQGTQVTVSS , pseudovirus neutralization IC50: 0.57
